tested on: TIP60-KAT5 (Homo sapiens, UniProt Q92993)
Construct: encoding amino acid residues 2 to 461 (Uniprot Q92993-2) of human KAT5 isoform; made in house; host or cells: E. coli BL21 DE3
Sequence (Q92993 2-461 isoform Q92993-2): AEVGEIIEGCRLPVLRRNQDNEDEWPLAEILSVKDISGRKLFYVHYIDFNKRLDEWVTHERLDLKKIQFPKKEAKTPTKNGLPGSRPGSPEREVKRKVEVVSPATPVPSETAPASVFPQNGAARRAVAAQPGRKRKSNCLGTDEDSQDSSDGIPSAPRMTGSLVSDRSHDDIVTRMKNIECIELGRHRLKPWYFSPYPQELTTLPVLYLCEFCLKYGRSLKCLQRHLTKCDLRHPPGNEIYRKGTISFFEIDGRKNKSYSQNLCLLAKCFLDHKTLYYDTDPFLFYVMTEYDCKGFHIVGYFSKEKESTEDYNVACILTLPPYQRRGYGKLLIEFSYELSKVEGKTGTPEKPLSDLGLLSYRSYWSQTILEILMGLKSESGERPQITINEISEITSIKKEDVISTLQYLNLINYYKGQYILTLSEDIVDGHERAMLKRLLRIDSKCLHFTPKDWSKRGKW
assay details: Acetyltransferase biochemical assay (AlphaScreen), KAT5
cond: Table 1 (TIP60-KAT5); 0.4 μM Acetyl coenzyme A, histone H4, 10 nM enzyme
pIC50: −log10 of the molar value.
readout kind: pIC50

Some entries whose results are on file:
[in] Suppose we examine the compound O=C(NCC(c1ccccc1F)n1cccc1)C1=Nc2ccccc2S(=O)(=O)N1 (stereo not shown) ; what pIC50 value has been reported?
[out] 4.44

[in] Also, O=C(NCCc1ccccc1)C1=Nc2ccc(I)cc2S(=O)(=O)N1 please.
[out] 5.04

[in] Also, O=C(NCC(c1ccccc1)c1ncco1)C1=Nc2ccc(OC(F)(F)F)cc2S(=O)(=O)N1 (stereo not shown) please.
[out] 5.93

[in] Also, O=C(NCC(c1ccccc1)c1ncco1)C1=Nc2ccc(O)cc2S(=O)(=O)N1 (single isomer, unassigned) [Example 149] please.
[out] 5.31

[in] Also, O=C(NCC(c1ccccc1)c1ccccc1)C1=Nc2ccc(-c3ccn[nH]3)cc2S(=O)(=O)N1 please.
[out] 4.14

P: O=C(NCC(c1ccccc1)c1ncco1)C1=Nc2ccc(F)cc2S(=O)(=O)N1 (single isomer, unassigned) [Example 145]
Q: O=C(NCCc1ccccc1OC(F)F)C1=Nc2ccc(I)cc2S(=O)(=O)N1
R: O=C(NCC(c1ccccc1)c1ncco1)C1=Nc2ccc(-c3cn[nH]c3)cc2S(=O)(=O)N1 (stereo not shown)
S: Cn1cc(-c2ccc3c(c2)S(=O)(=O)NC(C(=O)NCC(c2ccccc2)c2ncco2)=N3)cn1 (stereo not shown)
[in] Ascending by pIC50, please: list the compounds accordingly. Answer by writing out the labels in the requested order.
[out] P, S, R, Q
(P: 4.72, S: 5.16, R: 5.78, Q: 6.68)

---

tested on: TIP60-KAT5 (Homo sapiens, UniProt Q92993)
Construct: encoding amino acid residues 2 to 461 (Uniprot Q92993-2) of human KAT5 isoform; made in house; host or cells: E. coli BL21 DE3
assay details: Acetyltransferase biochemical assay (AlphaScreen), KAT5
cond: Table 1 (TIP60-KAT5); 0.4 μM Acetyl coenzyme A, histone H4, 10 nM enzyme
pIC50: −log10 of the molar value.
readout kind: pIC50

A: COC(=O)c1ccccc1CCNC(=O)C1=Nc2ccc(I)cc2S(=O)(=O)N1
B: COc1ccc2c(c1)S(=O)(=O)NC(C(=O)NCC(c1ccccc1)c1ccccc1)=N2
[in] // pick min by pIC50: A , B Pick one and reply with its label.
[out] B
(B: 4.48, A: 5.58)

---

tested on: HBO-KAT7 (Homo sapiens)
Construct: encoding amino acid residues 325 to 611 (Uniprot 095251-1) of human KAT7; made in house; host or cells: E. coli BL21 DE3 RIL
Sequence (O95251 with tags, fused parts or gaps): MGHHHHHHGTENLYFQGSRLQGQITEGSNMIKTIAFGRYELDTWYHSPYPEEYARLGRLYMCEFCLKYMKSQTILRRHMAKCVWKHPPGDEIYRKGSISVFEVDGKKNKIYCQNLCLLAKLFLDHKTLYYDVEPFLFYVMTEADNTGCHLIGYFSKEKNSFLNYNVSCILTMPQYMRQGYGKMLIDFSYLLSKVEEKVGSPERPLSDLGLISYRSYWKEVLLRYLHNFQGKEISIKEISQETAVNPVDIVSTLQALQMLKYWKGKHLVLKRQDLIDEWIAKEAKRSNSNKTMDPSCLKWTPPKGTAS
assay details: Revised Acetyltransferase Biochemical Assay, KAT7
cond: Table 9 (HBO-KAT7), 1 μM Acetyl coenzyme A
readout kind: IC50 (nM)

Some entries whose results are on file:
[in] Suppose we examine the compound O=C(NCCc1ccccc1-c1n[nH]c(=O)o1)C1=Nc2ccc(I)cc2S(=O)(=O)N1 [Example 172] ; what IC50 value has been reported?
[out] 41

[in] Also, O=C(NCC(c1ccccc1)c1ncco1)C1=Nc2cccnc2S(=O)(=O)N1 (stereo not shown) [Example 96] please.
[out] 1110

[in] Also, COc1cccc(C(CNC(=O)C2=Nc3ccc(Cl)cc3S(=O)(=O)N2)c2ncco2)c1 (stereo not shown) [Example 176] please.
[out] 869

1: O=C(NCC(c1ccccc1)c1ncco1)C1=Nc2ccc(I)cc2S(=O)(=O)N1 (single isomer, unassigned) [Example 146]
2: CC(O)c1ccc2c(c1)S(=O)(=O)NC(C(=O)NCC(c1ccccc1)c1ncco1)=N2 (stereo not shown) [Example 212]
3: O=C(NCC(c1cccc(I)c1)c1ncco1)C1=Nc2ccccc2S(=O)(=O)N1 (stereo not shown) [Example 160]
4: O=C(NCC(c1ccccc1)c1ncc[nH]1)C1=Nc2ccccc2S(=O)(=O)N1 (stereo not shown) [Example 113]
[in] Ascending by IC50, please: list the compounds accordingly. Answer by writing out the labels in the requested order.
[out] 1, 2, 3, 4
(1: 36 nM, 2: 1090 nM, 3: 1660 nM, 4: 6410 nM)

I: Nc1nnc(C(CNC(=O)C2=Nc3ccc(I)cc3S(=O)(=O)N2)c2ccccc2)o1 (stereo not shown) [Example 189]
II: O=C(NCCc1ccccc1-c1ncco1)C1=Nc2ccccc2S(=O)(=O)N1 [Example 7]
[in] // pick min by IC50: I , II Pick one and reply with its label.
[out] I

P: O=C(NCC(c1ccccc1)c1ncco1)C1=Nc2ccc(Br)cc2S(=O)(=O)N1 (single isomer, unassigned) [Example 139]
Q: COc1ccc2c(c1)S(=O)(=O)NC(C(=O)NCC(c1ccccc1)c1ccccc1)=N2 [Example 19]
[in] // pick min by IC50: P , Q Pick one and reply with its label.
[out] P
(P: 184 nM, Q: 1000 nM)

I: O=C(NCC(c1ccccc1)c1nccs1)C1=Nc2ccc(Cl)cc2S(=O)(=O)N1 (stereo not shown) [Example 166]
II: O=C(NCC(c1ccccn1)n1cccn1)C1=Nc2ccc(Br)cc2S(=O)(=O)N1 (stereo not shown) [Example 244]
[in] Which value of IC50 is numerically greater: that of I or that of II ? Pick one and reply with its label.
[out] II
(II: 3830 nM, I: 183 nM)

P: O=C(NCC(c1ccccc1)c1ccccn1)C1=Nc2ccc(Br)cc2S(=O)(=O)N1 (stereo not shown) [Example 173]
Q: Cc1noc(C(CNC(=O)C2=Nc3ccc(I)cc3S(=O)(=O)N2)c2ccccc2)n1 (stereo not shown) [Example 56]
[in] // pick min by IC50: P , Q Pick one and reply with its label.
[out] Q
(Q: 63 nM, P: 161 nM)

Values from patent US20210380548A1
